# TARGET OR TEST SYSTEM: human oxytocin (hOT) receptor (Homo sapiens)
# Construct: expressed in transfected cells
# Sequence (P30559 whole entry): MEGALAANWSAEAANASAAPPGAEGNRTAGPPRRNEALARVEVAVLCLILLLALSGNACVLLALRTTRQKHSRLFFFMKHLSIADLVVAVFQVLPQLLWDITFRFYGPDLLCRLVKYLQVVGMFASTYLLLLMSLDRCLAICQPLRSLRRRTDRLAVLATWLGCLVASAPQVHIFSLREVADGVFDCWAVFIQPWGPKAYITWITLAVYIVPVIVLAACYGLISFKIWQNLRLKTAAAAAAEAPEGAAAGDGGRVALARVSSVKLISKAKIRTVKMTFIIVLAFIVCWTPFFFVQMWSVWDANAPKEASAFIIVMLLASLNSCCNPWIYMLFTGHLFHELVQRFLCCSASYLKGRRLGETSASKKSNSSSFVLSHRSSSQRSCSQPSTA
# PROTOCOL DESCRIPTION: luciferase-based transcriptional reporter assay, selectivity hOT versus hV1a
# Format: cell-based
Positions of bridges follow the written chain, without caps; N, C: chain ends. Non-standard residues stand in square brackets, D forms with d. Residues, ends and D or L forms follow the SMILES beside them. Ala(2-furyl) = N[C@@H](Cc1ccco1)C(=O)O; Orn(iPr) = CC(C)NCCC[C@H](N)C(=O)O; 2Thi = N[C@@H](Cc1cccs1)C(=O)O; Orn = NCCC[C@H](N)C(=O)O
OUTCOME MEASURE: selectivity hOT/hV1a

{"columns": ["MOLECULE", "TARGET OR TEST SYSTEM", "OUTCOME MEASURE", "VAL"],
 "data": [
  ["CC[C@H](C)[C@@H]1NC(=O)[C@H](Cc2cccs2)NC(=O)[C@@H](N)CSSC[C@@H](C(=O)N2CCC[C@H]2C(=O)N[C@@H](CCCNC(C)C)C(=O)NCC(N)=O)NC(=O)[C@H](CC(N)=O)NC(=O)[C@H](CCC(N)=O)NC1=O [Compound 34] (H-C[2Thi]IQNCP[Orn(iPr)]G-NH2; disulfide 1-6)", "human oxytocin (hOT) receptor (Homo sapiens)", "selectivity hOT/hV1a", 72],
  ["CC[C@H](C)[C@@H]1NC(=O)[C@H](Cc2ccco2)NC(=O)[C@@H](N)CSSC[C@@H](C(=O)N2CCC[C@H]2C(=O)N[C@@H](CCCN)C(=O)NCC(N)=O)NC(=O)[C@H](CC(N)=O)NC(=O)[C@H](CCC(N)=O)NC1=O [Compound 25] (H-C[Ala(2-furyl)]IQNCP[Orn]G-NH2; disulfide 1-6)", "human oxytocin (hOT) receptor (Homo sapiens)", "selectivity hOT/hV1a", 23],
  ["CC[C@H](C)[C@@H]1NC(=O)[C@H](Cc2ccccc2)NC(=O)[C@@H](N)CSSC[C@@H](C(=O)N2CCC[C@H]2C(=O)N[C@@H](CCCNC(C)C)C(=O)NCC(N)=O)NC(=O)[C@H](CC(N)=O)NC(=O)[C@H](CC(N)=O)NC1=O [Compound 41] (H-CFINNCP[Orn(iPr)]G-NH2; disulfide 1-6)", "human oxytocin (hOT) receptor (Homo sapiens)", "selectivity hOT/hV1a", 53]
]}

----------
# Tested on: anaesthetised Sprague-Dawley male rats
# PROTOCOL DESCRIPTION: in vivo duration of action, blood pressure test in anaesthetised rats
# Parameters: species or system rat
# STUDY CONDITIONS: ratio of decay rate of diastolic blood pressure response, AVP 0.1 nmol/kg i.v. to equieffective dose of compound; dibenamine-pretreated rats
Starred links: 1 amine or outer side, 2 acyl side, 3 side chain; linkers in the order of their positions; H or OH if unused. Positions of bridges follow the written chain, without caps; N, C: chain ends. Non-standard residues stand in square brackets, D forms with d. Residues, ends and D or L forms follow the SMILES beside them. Ala(2-furyl) = N[C@@H](Cc1ccco1)C(=O)O; X1 = CCNCCC[C@H](N[*:1])C(=O)[*:2]; Orn = NCCC[C@H](N)C(=O)O
Recorded in vivo duration relative to AVP for the following compounds

{"columns": ["COMPOUND", "TARGET OR TEST SYSTEM", "in vivo duration relative to AVP"],
 "data": [
  ["CCNCCC[C@H](NC(=O)[C@@H]1CCCN1C(=O)[C@@H]1CSSC[C@H](N)C(=O)N[C@@H](Cc2ccccc2)C(=O)N[C@@H]([C@@H](C)CC)C(=O)N[C@@H](CC(N)=O)C(=O)N[C@@H](CC(N)=O)C(=O)N1)C(=O)NCC(N)=O [Compound 47] (H-CFINNCP[X1]G-NH2; disulfide 1-6; N-terminus and C-terminus assumed)", "anaesthetised Sprague-Dawley male rats", 1.6],
  ["CC[C@H](C)[C@@H]1NC(=O)[C@H](Cc2ccco2)NC(=O)[C@@H](N)CSSC[C@@H](C(=O)N2CCC[C@H]2C(=O)N[C@@H](CCCN)C(=O)NCC(N)=O)NC(=O)[C@H](CC(N)=O)NC(=O)[C@H](CCC(N)=O)NC1=O [Compound 25] (H-C[Ala(2-furyl)]IQNCP[Orn]G-NH2; disulfide 1-6)", "anaesthetised Sprague-Dawley male rats", 2.0],
  ["CC[C@H](C)[C@@H]1NC(=O)[C@H](Cc2ccccc2)NC(=O)[C@@H](N)CSSC[C@@H](C(=O)N2CCC[C@H]2C(=O)N[C@@H](CCCN)C(=O)NCC(N)=O)NC(=O)[C@H](CC(N)=O)NC(=O)[C@H](CC(N)=O)NC1=O [Compound 30] (H-CFINNCP[Orn]G-NH2; disulfide 1-6; N-terminus and C-terminus assumed)", "anaesthetised Sprague-Dawley male rats", 1.7]
]}

----------
# TARGET OR TEST SYSTEM: hV1a receptor (Homo sapiens, UniProt P37288)
# Construct: expressed in transfected cells; host or cells: HEK-293
# Sequence (P37288 whole entry): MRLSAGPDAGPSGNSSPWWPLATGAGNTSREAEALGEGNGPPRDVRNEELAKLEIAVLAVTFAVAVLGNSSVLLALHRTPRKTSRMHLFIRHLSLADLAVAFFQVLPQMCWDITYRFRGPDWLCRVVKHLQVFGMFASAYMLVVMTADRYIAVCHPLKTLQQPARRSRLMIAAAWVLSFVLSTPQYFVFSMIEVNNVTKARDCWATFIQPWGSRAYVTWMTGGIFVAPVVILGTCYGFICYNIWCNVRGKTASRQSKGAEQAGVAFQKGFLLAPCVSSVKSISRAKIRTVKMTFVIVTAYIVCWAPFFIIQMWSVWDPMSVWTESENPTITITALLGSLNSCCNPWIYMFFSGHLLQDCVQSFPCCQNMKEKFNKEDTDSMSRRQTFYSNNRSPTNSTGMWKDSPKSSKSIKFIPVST
# PROTOCOL DESCRIPTION: hV1a receptor transcriptional reporter (luciferase) agonist assay
# Format: cell-based
# STUDY CONDITIONS: HEK-293 cells transiently transfected with hV1a receptor, 5 hours exposure, geometric mean; read-out: EC50 hV1a receptor
Starred links: 1 amine or outer side, 2 acyl side, 3 side chain; linkers in the order of their positions; H or OH if unused. Positions of bridges follow the written chain, without caps; N, C: chain ends. Non-standard residues stand in square brackets, D forms with d. Residues, ends and D or L forms follow the SMILES beside them. *: point of attachment. Ala(4-thiazolyl) = N[C@@H](Cc1cscn1)C(=O)O; X2 = CONC(=O)CC[C@H](N[*:1])C(=O)[*:2]; Dab(iPr) = CC(C)NCC[C@H](N)C(=O)O; 2Thi = N[C@@H](Cc1cccs1)C(=O)O; 3Thi = N[C@@H](Cc1ccsc1)C(=O)O; Aad = N[C@@H](CCCC(=O)O)C(=O)O; Orn = NCCC[C@H](N)C(=O)O; Dab = NCC[C@H](N)C(=O)O; NHiBu = CC(C)CN*

{"columns": ["MOLECULE", "UNITS SYMBOL", "EC50"],
 "data": [
  ["CC[C@H](C)[C@@H]1NC(=O)[C@H](Cc2cscn2)NC(=O)[C@@H](N)CSSC[C@@H](C(=O)N2CCC[C@H]2C(=O)N[C@@H](CCN)C(=O)NCC(N)=O)NC(=O)[C@H](CC(N)=O)NC(=O)[C@H](CCC(N)=O)NC1=O [Compound 13] (H-C[Ala(4-thiazolyl)]IQNCP[Dab]G-NH2; disulfide 1-6; N-terminus and C-terminus assumed)", "nM", 18.8],
  ["CC[C@H](C)[C@@H]1NC(=O)[C@H](Cc2cccs2)NC(=O)[C@@H](N)CSSC[C@@H](C(=O)N2CCC[C@H]2C(=O)N[C@@H](CCN)C(=O)NCC(N)=O)NC(=O)[C@H](CC(N)=O)NC(=O)[C@H](CC(N)=O)NC1=O [Compound 36] (H-C[2Thi]INNCP[Dab]G-NH2; disulfide 1-6; N-terminus and C-terminus assumed)", "nM", 11.5],
  ["CC[C@H](C)[C@@H]1NC(=O)[C@H](Cc2ccccc2)NC(=O)[C@@H](N)CSSC[C@@H](C(=O)N2CCC[C@H]2C(=O)N[C@@H](CCCN)C(=O)NCC(N)=O)NC(=O)[C@H](CC(N)=O)NC(=O)[C@H](CCC(=O)NOC)NC1=O [Compound 10] (H-CFI[X2]NCP[Orn]G-NH2; disulfide 1-6; N-terminus and C-terminus assumed)", "nM", 1.15],
  ["CC[C@H](C)[C@@H]1NC(=O)[C@H](Cc2ccccc2)NC(=O)[C@@H](N)CSSC[C@@H](C(=O)N2CCC[C@H]2C(=O)N[C@@H](CCCN)C(=O)NCC(N)=O)NC(=O)[C@H](CC(N)=O)NC(=O)[C@H](CCC(=O)NCC(C)C)NC1=O [Compound 21] (H-CFIE(NHiBu)NCP[Orn]G-NH2; disulfide 1-6)", "nM", 20.7],
  ["CC[C@H](C)[C@@H]1NC(=O)[C@H](Cc2ccsc2)NC(=O)[C@@H](N)CSSC[C@@H](C(=O)N2CCC[C@H]2C(=O)N[C@@H](CCN)C(=O)NCC(N)=O)NC(=O)[C@H](CC(N)=O)NC(=O)[C@H](CCC(N)=O)NC1=O [Compound 15] (H-C[3Thi]IQNCP[Dab]G-NH2; disulfide 1-6)", "nM", 0.61],
  ["CC[C@H](C)[C@@H]1NC(=O)[C@H](Cc2ccccc2)NC(=O)[C@@H](N)CSSC[C@@H](C(=O)N2CCC[C@H]2C(=O)N[C@@H](CCNC(C)C)C(=O)NCC(N)=O)NC(=O)[C@H](CC(N)=O)NC(=O)[C@H](CCCC(N)=O)NC1=O [Compound 22] (H-CFI[Aad](NH2)NCP[Dab(iPr)]G-NH2; disulfide 1-6; N-terminus and C-terminus assumed)", "nM", 18.1]
]}
